test system: Drosophila S2 cl14 SmoIP sensor cells; test: normalized SmoIP GFP fluorescence (untreated unstimulated = 0%, untreated Hh-stimulated = 100%); higher = more Smo activation sensor fluorescence; conditions: stimulation: mock conditioned medium (-Hh); compound concentration: 2 uM; 24 h;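 note: flow cytometry read-out as median GFP intensity of gated cells, compounds added 30 min before Hh-conditioned or mock medium, mock-treated cells serving as unstimulated baseline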
This listing pairs compounds with measured normalized SmoIP GFP fluorescence.
Metric name: normalized SmoIP GFP fluorescence

{"Compound": "CCCNC(=O)Nc1ccc(Oc2ncnc3cc(OC)c(OC)cc23)cc1Cl", "Experimental system": "Drosophila S2 cl14 SmoIP sensor cells", "Metric name": "normalized SmoIP GFP fluorescence", "Result": "-6.51%"}
{"Compound": "CN(C)C1CCN(C(=O)c2ccc(NC(=O)Nc3ccc(-c4nc(N5CCOCC5)nc(N5CCOCC5)n4)cc3)cc2)CC1", "Experimental system": "Drosophila S2 cl14 SmoIP sensor cells", "Metric name": "normalized SmoIP GFP fluorescence", "Result": "-21.4%"}
{"Compound": "Cc1ccc(S(=O)(=O)NC(=O)NN2CC3CCCC3C2)cc1 (configuration not stated) [gliclazide-diamicron]", "Experimental system": "Drosophila S2 cl14 SmoIP sensor cells", "Metric name": "normalized SmoIP GFP fluorescence", "Result": "-13.7%"}
{"Compound": "CC[C@H](Nc1ncnc2[nH]cnc12)c1nc2cccc(F)c2c(=O)n1-c1ccccc1", "Experimental system": "Drosophila S2 cl14 SmoIP sensor cells", "Metric name": "normalized SmoIP GFP fluorescence", "Result": "-12.7%"}
{"Compound": "CC(C)(O)[C@H]1CC[C@@](C)([C@H]2[C@@H](O)C[C@@]3(C)[C@@H]4C[C@H](O[C@@H]5O[C@H](CO)[C@@H](O)[C@H](O)[C@H]5O)[C@H]5C(C)(C)[C@@H](O[C@@H]6OC[C@@H](O)[C@H](O)[C@H]6O)CC[C@@]56C[C@@]46CC[C@]23C)O1 [astragaloside-a]", "Experimental system": "Drosophila S2 cl14 SmoIP sensor cells", "Metric name": "normalized SmoIP GFP fluorescence", "Result": "-16.8%"}
{"Compound": "N[C@@H](CC(=O)N1CCn2c(nnc2C(F)(F)F)C1)Cc1cc(F)c(F)cc1F", "Experimental system": "Drosophila S2 cl14 SmoIP sensor cells", "Metric name": "normalized SmoIP GFP fluorescence", "Result": "-1.74%"}
{"Compound": "CC(=O)O/N=C1\\C(=O)N(Cc2cc(Cl)ccc2Cl)c2ccc(Cl)cc21", "Experimental system": "Drosophila S2 cl14 SmoIP sensor cells", "Metric name": "normalized SmoIP GFP fluorescence", "Result": "-2.93%"}

From: the supplement of paper PMC5662767
